Reference source for all entries: paper PMC3774380

biological target: L-glucagon (natural) (human); assay: competitive pull-down; conditions: all L-nucleotides; ribonucleotides at positions 5, 11, 14, 15, 25, 26, rest deoxy; Selection buffer: 20 mM Tris pH 7.4, 150 mM NaCl, 5 mM KCl, 1 mM MgCl2, 1 mM CaCl2, 0.1% Tween 20, 0.1% CHAPS, 100 ug/ml HSA, 10 ug/ml yeast RNA, 37 C …
measurement.label: Kd (nM)
A number alone suffices; assume nM.

Kd reported for this sequence GCGGGAAATGGGAGGGCTAGGTGGAAGGAATCTGAGCGC [L-257-E1-030-6xR] : 6.3

---

biological target: L-glucagon (natural) (human) (UniProt P01275); assay: competitive pull-down; conditions: all L-nucleotides; ribonucleotides at positions 15, 29, 30, rest deoxy; Selection buffer: 20 mM Tris pH 7.4, 150 mM NaCl, 5 mM KCl, 1 mM MgCl2, 1 mM CaCl2, 0.1% Tween 20, 0.1% CHAPS, 100 ug/ml HSA, 10 ug/ml yeast RNA, 37 C …
Sequence (P01275 53-81): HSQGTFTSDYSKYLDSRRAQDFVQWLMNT
measurement.label: pKd
Notebook: values listed as pKd are -log10 of the concentration (mol/L).

Value of measured pKd for the entry GCAGTGGGGAAATGGGAGGGCTAGGTGGAAGGAATCTGAGCTACTGC [L-257-E1-001-R15/29/30] : 7.70
